# assay name: Half life in cynomolgus monkey at 0.3 mg/kg, iv administered as single dose by LC-MS/MS method
# Format: ADME, organism-based, Macaca fascicularis
# Parameters: dose 0.3 mg/kg, route intravenous
# experimental parameters: in vivo
metric name: half-life (h)
All answers are understood in h, so give the number only.

# input Tell me the measured half-life of C[C@H]1O[C@@H](O[C@H]2[C@H](O)[C@@H](O)[C@@H](O[C@H]3[C@H](O)CN[C@@H]3CO)O[C@@H]2CO)[C@H](O)[C@@H](O)[C@@H]1O , please.
# output 2.51

====

# assay name: AUClast in cynomolgus monkey at 3 mg/kg, iv administered as single dose by LC-MS/MS method
# Format: ADME, organism-based, Macaca fascicularis
# Parameters: time 0 - last, dose 3 mg/kg, route intravenous
# experimental parameters: plasma
metric name: AUC(0-t) (ng·h/mL)
All answers are understood in ng·h/mL, so give the number only.

# input Tell me the measured AUC(0-t) of C[C@H]1O[C@@H](O[C@H]2[C@H](O)[C@@H](O)[C@@H](O[C@H]3[C@H](O)CN[C@@H]3CO)O[C@@H]2CO)[C@H](O)[C@@H](O)[C@@H]1O , please.
# output 18100

====

# assay name: Cmax in F344 rat at 0.3 mg/kg, po administered as single dose by LC-MS/MS method
# Type: ADME, organism-based
# Parameters: dose 0.3 mg/kg, route oral
# experimental parameters: in vivo
metric name: Cmax

# input Tell me the measured Cmax of C[C@H]1O[C@@H](O[C@H]2[C@H](O)[C@@H](O)[C@@H](O[C@H]3[C@H](O)CN[C@@H]3CO)O[C@@H]2CO)[C@H](O)[C@@H](O)[C@@H]1O , please.
# output 16.2 ng/mL

====

# assay name: Cmax in cynomolgus monkey at 10 mg/kg, po administered as single dose by LC-MS/MS method
# Format: ADME, organism-based, Macaca fascicularis
# Parameters: dose 10 mg/kg, route oral
# experimental parameters: in vivo
metric name: Cmax
# do not omit the unit; it follows the number

# input Tell me the measured Cmax of C[C@H]1O[C@@H](O[C@H]2[C@H](O)[C@@H](O)[C@@H](O[C@H]3[C@H](O)CN[C@@H]3CO)O[C@@H]2CO)[C@H](O)[C@@H](O)[C@@H]1O , please.
# output 152 ng/mL

====

# assay name: Half life in cynomolgus monkey at 3 mg/kg, po administered as single dose by LC-MS/MS method
# Assay type: ADME, organism-based, Macaca fascicularis
# Parameters: dose 3 mg/kg, route oral
# experimental parameters: in vivo
metric name: half-life (min)
All answers are understood in min, so give the number only.

# input Tell me the measured half-life of C[C@H]1O[C@@H](O[C@H]2[C@H](O)[C@@H](O)[C@@H](O[C@H]3[C@H](O)CN[C@@H]3CO)O[C@@H]2CO)[C@H](O)[C@@H](O)[C@@H]1O , please.
# output 127

====

# assay name: AUClast in cynomolgus monkey at 10 mg/kg, po administered as single dose by LC-MS/MS method
# Type: ADME, organism-based, Macaca fascicularis
# Parameters: time 0 - last, dose 10 mg/kg, route oral
# experimental parameters: plasma
metric name: AUC(0-t) (ng·h/mL)
All answers are understood in ng·h/mL, so give the number only.

# input Tell me the measured AUC(0-t) of C[C@H]1O[C@@H](O[C@H]2[C@H](O)[C@@H](O)[C@@H](O[C@H]3[C@H](O)CN[C@@H]3CO)O[C@@H]2CO)[C@H](O)[C@@H](O)[C@@H]1O , please.
# output 869
